experiment: in vivo; details: rhesus monkey, iv, 1 mg/kg
measured.metric: MRT (h)
State the answer as a number, implicitly in h.

Request: State the recorded MRT for this entry: CC#CC(=O)N[C@H]1CCCN(c2c(F)cc(C(N)=O)c3[nH]c(C)c(C)c23)C1
Result: 1

----------
test: in vitro; conditions: rat, plasma
measured.metric: fraction unbound

Request: State the recorded fraction unbound for this entry: CC#CC(=O)N[C@H]1CCCN(c2c(F)cc(C(N)=O)c3[nH]c(C)c(C)c23)C1
Result: 0.002

----------
test: in vivo; details: rat, urine, po, 10 mg/kg
measured.metric: dose excreted at 72 h

Request: State the recorded dose excreted at 72 h for this entry: CC#C[14C](=O)N[C@H]1CCCN(c2c(F)cc(C(N)=O)c3[nH]c(C)c(C)c23)C1
Result: 0.7%

----------
assay: in vivo; settings: rat, iv, 5 mg/kg
measured.metric: Vd (L/kg)
State the answer as a number, implicitly in L/kg.

Request: State the recorded Vd for this entry: CC#CC(=O)N[C@H]1CCCN(c2c(F)cc(C(N)=O)c3[nH]c(C)c(C)c23)C1 [BRANEBRUTINIB]
Result: 0.4

----------
assay: in vitro; conditions: human, plasma
measured.metric: fraction unbound
Please state the value as a number alone, without comment.

Request: State the recorded fraction unbound for this entry: CC#CC(=O)N[C@H]1CCCN(c2c(F)cc(C(N)=O)c3[nH]c(C)c(C)c23)C1
Result: 0.012

----------
Quick reference for Cmax among some compounds
assay: in vivo; conditions: mouse, plasma
State the answer as a number, implicitly in nM.

Use the examples below as a reference point.
CC#CC(=O)N[C@H]1CCCN(c2c(F)cc(C(N)=O)c3[nH]c(C)c(C)c23)C1 : 42000
CC#CC(=O)N[C@H]1CCCN(c2ccc(C(N)=O)c3[nH]c(C)c(C)c23)C1 : 490

Request: State the recorded Cmax for this entry: C=CS(=O)(=O)N[C@H]1CCCN(c2ccc(C(N)=O)c3[nH]c(C)c(C)c23)C1
Result: 127

----------
assay: in vivo; conditions: rat, po, 5 mg/kg
measured.metric: Cmax
# answer = value followed by unit

Request: State the recorded Cmax for this entry: CC#CC(=O)N[C@H]1CCCN(c2c(F)cc(C(N)=O)c3[nH]c(C)c(C)c23)C1
Result: 9.6 µM

----------
test: in vitro; conditions: human, Caco-2
measured.metric: Papp A→B

Request: State the recorded Papp A→B for this entry: CC#CC(=O)N[C@H]1CCCN(c2c(F)cc(C(N)=O)c3[nH]c(C)c(C)c23)C1 [BRANEBRUTINIB]
Result: 17.7 to 42.2 ×10⁻⁶ cm/s

----------
assay: in vitro; conditions: PAMPA, pH 5.5
measured.metric: Papp (×10⁻⁶ cm/s)
State the answer as a number, implicitly in ×10⁻⁶ cm/s.

Request: State the recorded Papp for this entry: CC#CC(=O)N[C@H]1CCCN(c2c(F)cc(C(N)=O)c3[nH]c(C)c(C)c23)C1
Result: 85.9

----------
assay: in vivo; conditions: dog, iv, 1 mg/kg
measured.metric: clearance (mL/min/kg)
State the answer as a number, implicitly in mL/min/kg.

Request: State the recorded clearance for this entry: CC#CC(=O)N[C@H]1CCCN(c2c(F)cc(C(N)=O)c3[nH]c(C)c(C)c23)C1 [BRANEBRUTINIB]
Result: 0.94
